Target: T1, LRRC7, Q96NW7
T1 sequence (Q96NW7 1440-1537, limits assumed, looked up): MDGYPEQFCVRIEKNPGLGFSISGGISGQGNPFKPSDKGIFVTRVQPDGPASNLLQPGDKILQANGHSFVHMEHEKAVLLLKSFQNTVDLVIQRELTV
Test: holdup assay
Design: key: below the threshold = too weak to quantify, mostly under pKd 3.1 to 4
Conditions: plain residues with an end cap or a label only (N-terminal biotin on a linker: ahx)
Measure: pKd

1. SDSSGQEYSL [KCTD3, Q9Y597]
below the threshold
2. ESLLLGPSNF [SHROOM4, Q9ULL8]
below the threshold
3. NRKREIFSNF [NHERF2, Q15599]
below the threshold
4. RRRKRKRTYL [HPV49-L2, P36762]
below the threshold
5. RAVEEEESRF [PSCDBP, O60759]
below the threshold
6. PSASCAVTAA [PDLIM4, P50479;P50479-2]
below the threshold
7. LSDPSVSTVV [GRIN1, Q05586;Q05586-2]
below the threshold
8. HNAFLSVTTV [PDZRN4, Q6ZMN7]
3.5
9. TVICWPGSLV [LNX2, Q8N448]
below the threshold
10. GYDWGPATDL [TJP3, O95049]
3.7
